Tested on: red blood cells
Experiment: Hemolysis assay
Format: cell-based, Sprague-Dawley mouse
Description: To confirm cytotoxicity by the hemolytic activity of each peptoid synthesized in Example 1, hemolysis analysis was performed. […] A supernatant was obtained and transferred to a new 96-well plate at 150 μL, and absorbance was measured using a spectrophotometer at 540 nm. Percent hemolysis may be calculated by the following Equation 1, and the corresponding results are shown in Tables 11 to 13. % Hemolysis=(A−C)/(B−C)×100 [Equation 1] […]
Where a SMILES comes first, the peptide text is derived from it. [ ]: non-standard residue; d: D form. Gly(N(CH2)2(3-indolyl)) = O=C(O)CNCCc1c[nH]c2ccccc12; Nspe = C[C@H](NCC(=O)O)c1ccccc1; Nlys = NCCCCNCC(=O)O
Below, each of the molecules is paired with its reported log10 HC50 value.
Values below are the log10 of the recorded HC50, with µM as the unit.

Answered examples (2):
## Input GET /values?readout=log10 HC50&system=red blood cells&item= C[C@@H](c1ccccc1)N(CC(=O)N(CCc1c[nH]c2ccccc12)CC(N)=O)C(=O)CN(CCCCN)C(=O)CN(C(=O)CN(C(=O)CN(CCCCN)C(=O)CN(C(=O)CN(C(=O)CN(CCCCN)C(=O)CN(C(=O)CN(C(=O)CNCCCCN)[C@@H](C)c1ccccc1)[C@@H](C)c1ccccc1)[C@@H](C)c1ccccc1)[C@@H](C)c1ccccc1)[C@@H](C)c1ccccc1)[C@@H](C)c1ccccc1 [Peptoid 7] (H-[Nlys][Nspe][Nspe][Nlys][Nspe][Nspe][Nlys][Nspe][Nspe][Nlys][Nspe][Gly(N(CH2)2(3-indolyl))]-NH2)
## Output 1.38

## Input GET /values?readout=log10 HC50&system=red blood cells&item= C[C@@H](c1ccccc1)N(CC(N)=O)C(=O)CN(C(=O)CN(CCCCN)C(=O)CN(C(=O)CN(C(=O)CN(CCCCN)C(=O)CN(C(=O)CN(C(=O)CN(CCCCN)C(=O)CN(C(=O)CN(C(=O)CN(CCCCN)C(=O)CN(Cc1ccccc1)C(=O)CNCc1ccccc1)[C@@H](C)c1ccccc1)[C@@H](C)c1ccccc1)[C@@H](C)c1ccccc1)[C@@H](C)c1ccccc1)[C@@H](C)c1ccccc1)[C@@H](C)c1ccccc1)[C@@H](C)c1ccccc1
## Output 0.81

New cases:
## Input GET /values?readout=log10 HC50&system=red blood cells&item= C[C@@H](c1ccccc1)N(CC(N)=O)C(=O)CN(C(=O)CN(CCCCN)C(=O)CN(C(=O)CN(CCCCN)C(=O)CN(CCCCN)C(=O)CN(C(=O)CN(C(=O)CN(CCCCN)C(=O)CN(C(=O)CN(C(=O)CN(CCCCN)C(=O)CN(CCc1c[nH]c2ccccc12)C(=O)CNCCc1c[nH]c2ccccc12)[C@@H](C)c1ccccc1)[C@@H](C)c1ccccc1)[C@@H](C)c1ccccc1)[C@@H](C)c1ccccc1)[C@@H](C)c1ccccc1)[C@@H](C)c1ccccc1
## Output 1.80

## Input GET /values?readout=log10 HC50&system=red blood cells&item= C[C@@H](c1ccccc1)N(CC(=O)N(CCCCN)CC(=O)N(CC(=O)N(CC(=O)N(CCCCN)CC(=O)N(CC(=O)N(CC(=O)N(CCCCN)CC(=O)N(CCc1c[nH]c2ccccc12)CC(=O)N(CCc1c[nH]c2ccccc12)CC(N)=O)[C@@H](C)c1ccccc1)[C@@H](C)c1ccccc1)[C@@H](C)c1ccccc1)[C@@H](C)c1ccccc1)C(=O)CN(C(=O)CNCCCCN)[C@@H](C)c1ccccc1 [Peptoid 11-1] (H-[Nlys][Nspe][Nspe][Nlys][Nspe][Nspe][Nlys][Nspe][Nspe][Nlys][Gly(N(CH2)2(3-indolyl))][Gly(N(CH2)2(3-indolyl))]-NH2)
## Output 1.33

## Input GET /values?readout=log10 HC50&system=red blood cells&item= C[C@@H](c1ccccc1)N(CC(N)=O)C(=O)CN(CCCCN)C(=O)CN(C(=O)CN(C(=O)CN(CCCCN)C(=O)CN(C(=O)CN(C(=O)CN(CCCCN)C(=O)CN(C(=O)CN(CCCCN)C(=O)CN(CCCCN)C(=O)CN(C(=O)CNCCc1c[nH]c2ccccc12)[C@@H](C)c1ccccc1)[C@@H](C)c1ccccc1)[C@@H](C)c1ccccc1)[C@@H](C)c1ccccc1)[C@@H](C)c1ccccc1)[C@@H](C)c1ccccc1
## Output 1.82

## Input GET /values?readout=log10 HC50&system=red blood cells&item= C[C@@H](c1ccccc1)N(CC(=O)N(CCCCN)CC(=O)N(CC(=O)N(CC(=O)N(CCCCN)CC(=O)N(CC(=O)N(CC(=O)N(CCCCN)CC(=O)N(CCc1c[nH]c2ccccc12)CC(=O)N(CCc1c[nH]c2ccccc12)CC(N)=O)[C@@H](C)c1ccccc1)[C@@H](C)c1ccccc1)[C@@H](C)c1ccccc1)[C@@H](C)c1ccccc1)C(=O)CN(C(=O)CNCCCCN)[C@@H](C)c1ccccc1 [Peptoid 11-2] (H-[Nlys][Nspe][Nspe][Nlys][Nspe][Nspe][Nlys][Nspe][Nspe][Nlys][Gly(N(CH2)2(3-indolyl))][Gly(N(CH2)2(3-indolyl))]-NH2)
## Output 1.47
